# Target or test system: Cellular tumor antigen p53 (Homo sapiens) (UniProt P04637)
# Sequence (P04637 whole entry, looked up): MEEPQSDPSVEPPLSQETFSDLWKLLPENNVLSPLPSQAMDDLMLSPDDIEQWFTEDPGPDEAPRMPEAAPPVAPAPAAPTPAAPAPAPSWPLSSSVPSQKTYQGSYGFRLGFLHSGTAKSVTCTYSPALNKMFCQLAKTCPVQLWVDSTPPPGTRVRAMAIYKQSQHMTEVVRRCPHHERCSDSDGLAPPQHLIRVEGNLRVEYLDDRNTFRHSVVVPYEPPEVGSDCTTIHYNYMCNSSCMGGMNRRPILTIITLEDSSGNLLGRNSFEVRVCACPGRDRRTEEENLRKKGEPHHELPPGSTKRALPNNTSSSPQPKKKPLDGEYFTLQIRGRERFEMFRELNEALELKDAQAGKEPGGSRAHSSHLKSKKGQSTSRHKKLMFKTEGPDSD
# Experiment notes: TOX21_p53_BLA_p2_ratio: Tox21 HCT-116 p53 Agonism Beta-lactamase Assay, Ratio, Phase 2 (AID 2283592)
Results filed as inconclusive are left out. Calls of active or inactive are those of the source. How the source made its calls: active means hit-call score of the fitted dose curve at least 0.9, where 1 is the maximum; inconclusive means response in the unintended direction; inactive means score below 0.9.
Measure name: outcome

[[record]]
compound = "COc1ccc2c(c1OC)C(=O)O[C@@H]2[C@H]1c2c(cc3c(c2OC)OCO3)CCN1C"
target_or_test_system = "Cellular tumor antigen p53 (Homo sapiens) (UniProt P04637)"
measure_name = "outcome"
result = "inactive"

[[record]]
compound = "Nc1c2c(nc3ccccc13)CCCC2O (stereo not given)"
target_or_test_system = "Cellular tumor antigen p53 (Homo sapiens) (UniProt P04637)"
measure_name = "outcome"
result = "inactive"

[[record]]
compound = "C=CC(C)CCC=C(C)C (stereo not given)"
target_or_test_system = "Cellular tumor antigen p53 (Homo sapiens) (UniProt P04637)"
measure_name = "outcome"
result = "inactive"

[[record]]
compound = "c1cc2c3c(c1)ccc1cccc(c13)C2"
target_or_test_system = "Cellular tumor antigen p53 (Homo sapiens) (UniProt P04637)"
measure_name = "outcome"
result = "inactive"

[[record]]
compound = "NC1=NCC2c3ccccc3Cc3ccccc3N12 (stereo not given)"
target_or_test_system = "Cellular tumor antigen p53 (Homo sapiens) (UniProt P04637)"
measure_name = "outcome"
result = "inactive"

[[record]]
compound = "O=C(O)c1ccc(O)cc1O"
target_or_test_system = "Cellular tumor antigen p53 (Homo sapiens) (UniProt P04637)"
measure_name = "outcome"
result = "inactive"

[[record]]
compound = "CCOC(=O)CCC(=O)O[C@H]1[C@H](O[C@@H]2[C@@H](C)[C@H](O[C@H]3C[C@@](C)(OC)[C@@H](O)[C@H](C)O3)[C@@H](C)C(=O)O[C@H](CC)[C@@](C)(O)[C@H](O)[C@@H](C)C(=O)[C@H](C)C[C@@]2(C)O)O[C@H](C)C[C@@H]1N(C)C"
target_or_test_system = "Cellular tumor antigen p53 (Homo sapiens) (UniProt P04637)"
measure_name = "outcome"
result = "inactive"

[[record]]
compound = "CN[C@@H]1CCc2[nH]c3ccc(C(N)=O)cc3c2C1"
target_or_test_system = "Cellular tumor antigen p53 (Homo sapiens) (UniProt P04637)"
measure_name = "outcome"
result = "inactive"

[[record]]
compound = "CC(N)CN (stereo not given)"
target_or_test_system = "Cellular tumor antigen p53 (Homo sapiens) (UniProt P04637)"
measure_name = "outcome"
result = "inactive"

[[record]]
compound = "O=C1c2ccccc2C(=O)C1c1ccccc1"
target_or_test_system = "Cellular tumor antigen p53 (Homo sapiens) (UniProt P04637)"
measure_name = "outcome"
result = "inactive"

[[record]]
compound = "O=C(O)c1cc2cc(Cc3cccnc3)ccc2o1"
target_or_test_system = "Cellular tumor antigen p53 (Homo sapiens) (UniProt P04637)"
measure_name = "outcome"
result = "inactive"

[[record]]
compound = "NC(=O)OC[C@@H]1[C@H](NC(=O)/C(=N\\OCC(=O)O)c2csc(N)n2)C(=O)N1S(=O)(=O)O"
target_or_test_system = "Cellular tumor antigen p53 (Homo sapiens) (UniProt P04637)"
measure_name = "outcome"
result = "inactive"

[[record]]
compound = "CCC(O)c1ccccc1 (stereo not given)"
target_or_test_system = "Cellular tumor antigen p53 (Homo sapiens) (UniProt P04637)"
measure_name = "outcome"
result = "inactive"

[[record]]
compound = "CCCOc1ccc2nc(NC(=O)OC)[nH]c2c1"
target_or_test_system = "Cellular tumor antigen p53 (Homo sapiens) (UniProt P04637)"
measure_name = "outcome"
result = "inactive"

[[record]]
compound = "[K+]"
target_or_test_system = "Cellular tumor antigen p53 (Homo sapiens) (UniProt P04637)"
measure_name = "outcome"
result = "inactive"

